Target: Protein kinase C epsilon type (Homo sapiens)
Sequence (Q02156 whole entry): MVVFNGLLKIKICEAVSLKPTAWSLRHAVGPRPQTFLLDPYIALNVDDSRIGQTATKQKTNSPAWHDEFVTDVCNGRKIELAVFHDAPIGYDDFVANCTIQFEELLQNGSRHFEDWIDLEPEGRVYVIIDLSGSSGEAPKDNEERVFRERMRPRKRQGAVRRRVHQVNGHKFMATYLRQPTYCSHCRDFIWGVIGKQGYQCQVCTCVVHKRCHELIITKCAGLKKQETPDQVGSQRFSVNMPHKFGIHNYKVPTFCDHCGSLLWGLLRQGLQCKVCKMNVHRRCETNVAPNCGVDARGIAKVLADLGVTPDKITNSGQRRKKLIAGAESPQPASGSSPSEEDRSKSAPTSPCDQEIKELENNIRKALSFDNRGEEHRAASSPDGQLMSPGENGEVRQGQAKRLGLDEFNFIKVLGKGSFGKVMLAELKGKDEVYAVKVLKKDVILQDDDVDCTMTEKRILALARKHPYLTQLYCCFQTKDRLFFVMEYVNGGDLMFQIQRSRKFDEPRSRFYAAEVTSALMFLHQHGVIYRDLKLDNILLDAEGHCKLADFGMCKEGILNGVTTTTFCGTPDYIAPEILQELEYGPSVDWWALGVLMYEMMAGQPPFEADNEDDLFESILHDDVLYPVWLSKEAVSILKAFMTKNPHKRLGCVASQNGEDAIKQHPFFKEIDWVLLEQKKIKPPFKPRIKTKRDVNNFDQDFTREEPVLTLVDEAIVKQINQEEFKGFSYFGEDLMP
Assay: Inhibition of protein kinase C epsilon expressed in Sf-9 cells
IC50 values by entry
// return numeric value only (unit: µM, not printed)

Here are 3 compounds together with their reported answers.
{"compound": "CC(C)(C)C(=O)OCOC(=O)c1cccc(O)c1C(=O)c1c(O)cc(C(=O)O[C@@H]2CNC[C@H]2NC(=O)c2ccc(O)cc2)cc1O", "assayed.system": "Protein kinase C epsilon type (Homo sapiens)", "unit": "µM", "val": 0.034}
{"compound": "O=C(N[C@@H]1CNC[C@H]1OC(=O)c1cc(O)c(C(=O)c2c(O)cccc2C(=O)OCC2CCCCC2)c(O)c1)c1ccc(O)cc1", "assayed.system": "Protein kinase C epsilon type (Homo sapiens)", "unit": "µM", "val": 25}
{"compound": "CCOC(=O)c1cccc(O)c1C(=O)c1c(O)cc(C(=O)O[C@@H]2CCC[C@H]2NC(=O)c2ccc(O)cc2)cc1O", "assayed.system": "Protein kinase C epsilon type (Homo sapiens)", "unit": "µM", "val": 0.66}

GET /values?item= `CCOC(=O)c1cccc(O)c1C(=O)c1c(O)cc(C(=O)O[C@@H]2CNC[C@H]2NC(=O)c2ccc(O)cc2)cc1O` &system= Protein kinase C epsilon type (Homo sapiens) returns IC50: 1.3

The reported Protein kinase C epsilon type (Homo sapiens) IC50 of COC(=O)c1cccc(O)c1C(=O)c1c(O)cc(C(=O)O[C@@H]2CCC[C@H]2NC(=O)c2ccc(O)cc2)cc1O (stereo in doubt; 8 (+)) is 20

The compound `CC(C)OC(=O)c1cccc(O)c1C(=O)c1c(O)cc(C(=O)O[C@@H]2CCC[C@H]2NC(=O)c2ccc(O)cc2)cc1O` on Protein kinase C epsilon type (Homo sapiens): IC50 was 13

Item: COC(=O)c1cccc(O)c1C(=O)c1c(O)cc(C(=O)O[C@@H]2CCC[C@H]2NC(=O)c2ccc(O)cc2)cc1O (stereo in doubt; 8 (-)) | System: Protein kinase C epsilon type (Homo sapiens) | IC50: 0.3

Bench note, Protein kinase C epsilon type (Homo sapiens): COC(=O)c1cccc(O)c1C(=O)c1c(O)cc(C(=O)O[C@@H]2CCC[C@H]2NC(=O)c2ccc(O)cc2)cc1O (racemic) , IC50 reads 0.26
